Biological target: NK1 receptor (Cavia porcellus)
Construct: from tissue; host or cells: isolated guinea pig ileum
Sequence (P30547 whole entry): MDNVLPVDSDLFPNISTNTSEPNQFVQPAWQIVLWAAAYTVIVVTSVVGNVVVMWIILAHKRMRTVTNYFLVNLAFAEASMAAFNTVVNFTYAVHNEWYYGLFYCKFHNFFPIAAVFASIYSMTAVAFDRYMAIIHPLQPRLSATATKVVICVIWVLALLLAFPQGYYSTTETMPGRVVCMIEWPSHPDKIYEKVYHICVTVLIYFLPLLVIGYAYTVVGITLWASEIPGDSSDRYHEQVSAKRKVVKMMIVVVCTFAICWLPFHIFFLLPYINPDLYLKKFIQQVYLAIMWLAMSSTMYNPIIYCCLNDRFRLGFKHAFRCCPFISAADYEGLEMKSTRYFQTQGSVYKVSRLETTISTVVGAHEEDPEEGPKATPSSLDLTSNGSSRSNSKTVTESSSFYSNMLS
Assay: Test for NK1 receptor antagonist: substance P concentration-response in isolated guinea pig ileum, Schild analysis
Type: cell-based
Settings: antagonism of substance P, 10 min pretreatment, Schild method
Assign class by Kb: not lower than 200 pM means y; lower than 200 pM means n.

[[record]]
input_smiles = "Cc1ccccc1-c1cc(N2CCC(N3CCCC3=O)CC2)nc2c1C(=O)N(Cc1cc(C(F)(F)F)cc(C(F)(F)F)c1)CCCO2"
tested_on = "NK1 receptor (Cavia porcellus)"
class_label = "y"

[[record]]
input_smiles = "Cc1ccccc1-c1cc(N2CCC(N3CCCC3)CC2)nc2c1C(=O)N(Cc1cc(C(F)(F)F)cc(C(F)(F)F)c1)CCCO2"
tested_on = "NK1 receptor (Cavia porcellus)"
class_label = "y"

[[record]]
input_smiles = "O=C1c2c(-c3ccc(F)cc3)cc(N3CCC(N4CCCC4)CC3)nc2OCCCN1Cc1cc(C(F)(F)F)cc(C(F)(F)F)c1"
tested_on = "NK1 receptor (Cavia porcellus)"
class_label = "n"

[[record]]
input_smiles = "Cc1ccccc1-c1cc(N2CCC(N3CCOCC3)CC2)nc2c1C(=O)N(Cc1cc(C(F)(F)F)cc(C(F)(F)F)c1)CCCO2"
tested_on = "NK1 receptor (Cavia porcellus)"
class_label = "n"

[[record]]
input_smiles = "O=C1c2c(-c3ccccc3)cc(N3CCC(N4CCCC4)CC3)nc2OCCCN1Cc1cc(C(F)(F)F)cc(C(F)(F)F)c1"
tested_on = "NK1 receptor (Cavia porcellus)"
class_label = "y"

[[record]]
input_smiles = "Cc1ccccc1-c1cc(N2CCC(N(C)C)CC2)nc2c1C(=O)N(Cc1cc(C(F)(F)F)cc(C(F)(F)F)c1)CCCO2"
tested_on = "NK1 receptor (Cavia porcellus)"
class_label = "y"

[[record]]
input_smiles = "CC(=O)NC1CCN(c2cc(-c3ccccc3C)c3c(n2)OCCCN(Cc2cc(C(F)(F)F)cc(C(F)(F)F)c2)C3=O)CC1"
tested_on = "NK1 receptor (Cavia porcellus)"
class_label = "n"

